# Conditions Used: in n-butanol, 343.23 K
Measure: solubility (mole fraction)
Provide a numeric answer; units are not to be included.

Given the molecule Cn1[nH]c(=O)c(=O)[nH]c1=S , what is its reported solubility (mole fraction)?
0.0288

###

# Conditions Used: in n-propanol, 313.15 K
Measure: solubility (mole fraction)
Provide a numeric answer; units are not to be included.

Given the molecule Cn1[nH]c(=O)c(=O)[nH]c1=S , what is its reported solubility (mole fraction)?
0.0139

###

# Conditions Used: in n-propanol, 308.23 K
Measure: solubility (mole fraction)
Provide a numeric answer; units are not to be included.

Given the molecule Cn1[nH]c(=O)c(=O)[nH]c1=S , what is its reported solubility (mole fraction)?
0.0122

###

# Conditions Used: in ethanol, 313.47 K
Measure: solubility (mole fraction)
Provide a numeric answer; units are not to be included.

Given the compound Cn1[nH]c(=O)c(=O)[nH]c1=S , what is its reported solubility (mole fraction)?
0.0186

###

# Conditions Used: in ethanol, 343.33 K
Measure: solubility (mole fraction)
Provide a numeric answer; units are not to be included.

Given the molecule Cn1[nH]c(=O)c(=O)[nH]c1=S , what is its reported solubility (mole fraction)?
0.0345

###

# Conditions Used: in n-propanol, 318.23 K
Measure: solubility (mole fraction)
Provide a numeric answer; units are not to be included.

Given the molecule Cn1[nH]c(=O)c(=O)[nH]c1=S , what is its reported solubility (mole fraction)?
0.0157

###

# Conditions Used: in n-propanol, 328.47 K
Measure: solubility (mole fraction)
Provide a numeric answer; units are not to be included.

Given the compound Cn1[nH]c(=O)c(=O)[nH]c1=S , what is its reported solubility (mole fraction)?
0.0198

###

# Conditions Used: in ethanol, 293.23 K
Measure: solubility (mole fraction)
Provide a numeric answer; units are not to be included.

Given the compound Cn1[nH]c(=O)c(=O)[nH]c1=S , what is its reported solubility (mole fraction)?
0.0125

###

# Conditions Used: in acetonitrile, 308.11 K
Measure: solubility (mole fraction)
Provide a numeric answer; units are not to be included.

Given the molecule Cn1[nH]c(=O)c(=O)[nH]c1=S , what is its reported solubility (mole fraction)?
0.00299

###

# Conditions Used: in n-butanol, 293.11 K
Measure: solubility (mole fraction)
Provide a numeric answer; units are not to be included.

Given the compound Cn1[nH]c(=O)c(=O)[nH]c1=S , what is its reported solubility (mole fraction)?
0.00872

###

# Conditions Used: in water, 332.83 K
Measure: solubility (mole fraction)

Given the molecule Cn1[nH]c(=O)c(=O)[nH]c1=S , what is its reported solubility (mole fraction)?
0.00522

###

# Conditions Used: in acetone, 327.37 K
Measure: solubility (mole fraction)
Provide a numeric answer; units are not to be included.

Given the molecule Cn1[nH]c(=O)c(=O)[nH]c1=S , what is its reported solubility (mole fraction)?
0.0209

###

# Conditions Used: in acetone, 323.07 K
Measure: solubility (mole fraction)

Given the compound Cn1[nH]c(=O)c(=O)[nH]c1=S , what is its reported solubility (mole fraction)?
0.0199

###

# Conditions Used: in ethyl acetate, 308.49 K
Measure: solubility (mole fraction)

Given the compound Cn1[nH]c(=O)c(=O)[nH]c1=S , what is its reported solubility (mole fraction)?
0.00697

###

# Conditions Used: in n-propanol, 343.35 K
Measure: solubility (mole fraction)
Provide a numeric answer; units are not to be included.

Given the compound Cn1[nH]c(=O)c(=O)[nH]c1=S , what is its reported solubility (mole fraction)?
0.0286

###

# Conditions Used: in isopropanol, 323.07 K
Measure: solubility (mole fraction)

Given the compound Cn1[nH]c(=O)c(=O)[nH]c1=S , what is its reported solubility (mole fraction)?
0.0142

###

# Conditions Used: in n-butanol, 322.89 K
Measure: solubility (mole fraction)
Provide a numeric answer; units are not to be included.

Given the compound Cn1[nH]c(=O)c(=O)[nH]c1=S , what is its reported solubility (mole fraction)?
0.0178

###

# Conditions Used: in water, 327.77 K
Measure: solubility (mole fraction)
Provide a numeric answer; units are not to be included.

Given the compound Cn1[nH]c(=O)c(=O)[nH]c1=S , what is its reported solubility (mole fraction)?
0.00438

###

# Conditions Used: in ethanol, 323.41 K
Measure: solubility (mole fraction)
Provide a numeric answer; units are not to be included.

Given the molecule Cn1[nH]c(=O)c(=O)[nH]c1=S , what is its reported solubility (mole fraction)?
0.0228

###

# Conditions Used: in ethyl acetate, 338.23 K
Measure: solubility (mole fraction)
Provide a numeric answer; units are not to be included.

Given the molecule Cn1[nH]c(=O)c(=O)[nH]c1=S , what is its reported solubility (mole fraction)?
0.0104

###

# Conditions Used: in water, 302.93 K
Measure: solubility (mole fraction)
Provide a numeric answer; units are not to be included.

Given the compound Cn1[nH]c(=O)c(=O)[nH]c1=S , what is its reported solubility (mole fraction)?
0.00187

###

# Conditions Used: in acetone, 308.05 K
Measure: solubility (mole fraction)

Given the compound Cn1[nH]c(=O)c(=O)[nH]c1=S , what is its reported solubility (mole fraction)?
0.0168

###

# Conditions Used: in n-propanol, 338.33 K
Measure: solubility (mole fraction)
Provide a numeric answer; units are not to be included.

Given the molecule Cn1[nH]c(=O)c(=O)[nH]c1=S , what is its reported solubility (mole fraction)?
0.0251

###

# Conditions Used: in acetone, 303.09 K
Measure: solubility (mole fraction)
Provide a numeric answer; units are not to be included.

Given the compound Cn1[nH]c(=O)c(=O)[nH]c1=S , what is its reported solubility (mole fraction)?
0.016

###

# Conditions Used: in acetonitrile, 317.95 K
Measure: solubility (mole fraction)
Provide a numeric answer; units are not to be included.

Given the compound Cn1[nH]c(=O)c(=O)[nH]c1=S , what is its reported solubility (mole fraction)?
0.00375

###

# Conditions Used: in ethyl acetate, 343.33 K
Measure: solubility (mole fraction)
Provide a numeric answer; units are not to be included.

Given the compound Cn1[nH]c(=O)c(=O)[nH]c1=S , what is its reported solubility (mole fraction)?
0.0111

###

# Conditions Used: in n-butanol, 328.13 K
Measure: solubility (mole fraction)
Provide a numeric answer; units are not to be included.

Given the compound Cn1[nH]c(=O)c(=O)[nH]c1=S , what is its reported solubility (mole fraction)?
0.02

###

# Conditions Used: in ethyl acetate, 313.53 K
Measure: solubility (mole fraction)

Given the molecule Cn1[nH]c(=O)c(=O)[nH]c1=S , what is its reported solubility (mole fraction)?
0.00747

###

# Conditions Used: in n-butanol, 298.23 K
Measure: solubility (mole fraction)

Given the molecule Cn1[nH]c(=O)c(=O)[nH]c1=S , what is its reported solubility (mole fraction)?
0.00964

###

# Conditions Used: in ethanol, 303.33 K
Measure: solubility (mole fraction)
Provide a numeric answer; units are not to be included.

Given the compound Cn1[nH]c(=O)c(=O)[nH]c1=S , what is its reported solubility (mole fraction)?
0.0152

###

# Conditions Used: in water, 317.65 K
Measure: solubility (mole fraction)

Given the molecule Cn1[nH]c(=O)c(=O)[nH]c1=S , what is its reported solubility (mole fraction)?
0.00306

###

# Conditions Used: in ethanol, 308.29 K
Measure: solubility (mole fraction)
Provide a numeric answer; units are not to be included.

Given the compound Cn1[nH]c(=O)c(=O)[nH]c1=S , what is its reported solubility (mole fraction)?
0.0169

###

# Conditions Used: in acetone, 318.03 K
Measure: solubility (mole fraction)

Given the compound Cn1[nH]c(=O)c(=O)[nH]c1=S , what is its reported solubility (mole fraction)?
0.0186

###

# Conditions Used: in n-butanol, 302.99 K
Measure: solubility (mole fraction)
Provide a numeric answer; units are not to be included.

Given the molecule Cn1[nH]c(=O)c(=O)[nH]c1=S , what is its reported solubility (mole fraction)?
0.0109

###

# Conditions Used: in ethanol, 298.35 K
Measure: solubility (mole fraction)
Provide a numeric answer; units are not to be included.

Given the molecule Cn1[nH]c(=O)c(=O)[nH]c1=S , what is its reported solubility (mole fraction)?
0.014

###

# Conditions Used: in isopropanol, 317.83 K
Measure: solubility (mole fraction)
Provide a numeric answer; units are not to be included.

Given the molecule Cn1[nH]c(=O)c(=O)[nH]c1=S , what is its reported solubility (mole fraction)?
0.0124

###

# Conditions Used: in ethyl acetate, 328.61 K
Measure: solubility (mole fraction)
Provide a numeric answer; units are not to be included.

Given the compound Cn1[nH]c(=O)c(=O)[nH]c1=S , what is its reported solubility (mole fraction)?
0.00918

###

# Conditions Used: in n-propanol, 292.99 K
Measure: solubility (mole fraction)
Provide a numeric answer; units are not to be included.

Given the molecule Cn1[nH]c(=O)c(=O)[nH]c1=S , what is its reported solubility (mole fraction)?
0.00859

Every entry's value here was drawn from BigSolDB 2.1.
